System: human TGF-beta1 mRNA
Assay: Dose-dependent antisense inhibition of human TGF-beta1 in HuVEC cells, Lipofectamine 2000, 0.3292-80 nM, comparison with oligos of U.S. Pat. No. 6,436,909 (Example 4)
Assay type: cell-based
Settings: 0.3292 nM
In the oligonucleotide strings, read from the 5' end, every base follows the letter of its sugar. An asterisk marks phosphorothioate; unmarked linkages are phosphodiester. Other units and linkages are bracketed, terminal groups are in braces. A string of capitals states the bases alone. e = 2'-O-(2-methoxyethyl) (MOE); [5mC] = 5-methylcytosine; d = 2'-deoxy (DNA)
property label: percent inhibition of TGF-beta1 (%)
One number for each entry, in %.

// solved cases for percent inhibition of TGF-beta1 follow
[[record]]
substance = "414035 (antisense GTCCTTAAATACAGCCCCCA; sugars from the 5' end e2 d13 e5, backbone and methylation of C not given here) [compound 414035]"
recorded_measurement = 74

[[record]]
substance = "414036 (antisense GTGTCCTTAAATACAGCCCC; sugars from the 5' end e2 d13 e5, backbone and methylation of C not given here) [compound 414036]"
recorded_measurement = 70


Provide the reported percent inhibition of TGF-beta1 of each entry below, same order.
1. 414040 (antisense e[5mC]*eT*d[5mC]*dT*d[5mC]*dT*d[5mC]*d[5mC]*dA*dT*d[5mC]*dT*dT*dT*dA*eA*eT*eG*eG*eG) [compound 414040]
2. 413982 (antisense GCCTCCGGCTCCCAGCGGCA; sugars from the 5' end e2 d13 e5, backbone and methylation of C not given here) [compound 413982]

1. 85
2. 76

---

Test system: human TGF-beta1 mRNA
Assay: Dose-dependent antisense inhibition of human TGF-beta1 in HuVEC cells, Lipofectamine 2000, 0.9375-30 nM (Example 3)
Format: cell-based
Settings: 0.9375 nM, Lipofectamine 2000
In the oligonucleotide strings, read from the 5' end, every base follows the letter of its sugar. An asterisk marks phosphorothioate; unmarked linkages are phosphodiester. Other units and linkages are bracketed, terminal groups are in braces. A string of capitals states the bases alone. e = 2'-O-(2-methoxyethyl) (MOE); [5mC] = 5-methylcytosine; d = 2'-deoxy (DNA)
Would you mind telling me the reported percent inhibition of TGF-beta1 of each entry?
One number for each entry, in %.

Solved entries:
[[record]]
substance = "414058 (antisense eA*eG*dG*dT*d[5mC]*dA*dA*dG*d[5mC]*d[5mC]*dA*dT*dG*dT*dG*eG*e[5mC]*eA*e[5mC]*e[5mC]) [compound 414058]"
property_label = "percent inhibition of TGF-beta1"
units = "%"
recorded_measurement = 46

[[record]]
substance = "413982 (antisense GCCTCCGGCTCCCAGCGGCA; sugars from the 5' end e2 d13 e5, backbone and methylation of C not given here) [compound 413982]"
property_label = "percent inhibition of TGF-beta1"
units = "%"
recorded_measurement = 56


Sample 414035 (antisense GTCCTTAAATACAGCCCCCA; sugars from the 5' end e2 d13 e5, backbone and methylation of C not given here) [compound 414035] — what was its percent inhibition of TGF-beta1? 64

---

For each of the substances below, state its percent inhibition of TGF-beta1.
System: human TGF-beta1 mRNA
Assay: Dose-dependent antisense inhibition of human TGF-beta1 in HuVEC cells, Lipofectamine 2000, 0.9375-30 nM (Example 3)
Format: cell-based
Details: 0.9375 nM, Lipofectamine 2000
In the oligonucleotide strings, read from the 5' end, every base follows the letter of its sugar. An asterisk marks phosphorothioate; unmarked linkages are phosphodiester. Other units and linkages are bracketed, terminal groups are in braces. A string of capitals states the bases alone. e = 2'-O-(2-methoxyethyl) (MOE); [5mC] = 5-methylcytosine; d = 2'-deoxy (DNA)
Numbers only, in %.

[[record]]
substance = "413970 (antisense eG*e[5mC]*d[5mC]*dT*d[5mC]*dA*dG*dG*d[5mC]*dT*dG*d[5mC]*dT*d[5mC]*d[5mC]*eT*e[5mC]*eG*eG*e[5mC]) [compound 413970]"
property_label = "percent inhibition of TGF-beta1"
recorded_measurement = 48

[[record]]
substance = "414036 (antisense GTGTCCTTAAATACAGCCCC; sugars from the 5' end e2 d13 e5, backbone and methylation of C not given here) [compound 414036]"
property_label = "percent inhibition of TGF-beta1"
recorded_measurement = 56


Could you now look at the following substance, please?
Entry 414037 (antisense eG*eG*dG*dT*dG*dT*d[5mC]*d[5mC]*dT*dT*dA*dA*dA*dT*dA*e[5mC]*eA*eG*e[5mC]*e[5mC]) [compound 414037] : reported percent inhibition of TGF-beta1 = ? 56
